Listed here are compounds together with their documented EC50.
- Test system: Human Pan T Cell (IL-2 release)
- PROTOCOL TEXT: IL2 released by human pan T cell upon anti-CD3/anti-CD28 stimulation (ELISA)
- Type: cell-based
- CONDITIONS USED: Homo sapiens, T-cell, IL-2 response, human pan T cells, calculated with GraphPad Prism

Worked examples follow.
Task: Give the measured EC50 of `COc1cc2c(cc1Nc1ncc(Cl)c(-n3cc(CC(=O)O)c4ccccc43)n1)CN(C)CC2` .
Output: 0.1 to 0.5 µM

Task: Give the measured EC50 of COc1cc2c(cc1Nc1ncc(Cl)c(N3CC(C)(CC(=O)O)c4ccc(F)cc43)n1)CN(C)CC2 (single isomer, unassigned) [Example 152] .
Output: ≤ 0.1 µM

Continuing:
Task: Give the measured EC50 of CNC(=O)C1CN(c2nc(Nc3cc4c(cc3OC)CCN(C)C4)ncc2Cl)c2ccccc21 (stereo not shown) .
Output: 0.1 to 0.5 µM

Task: Give the measured EC50 of `COc1nc2c(cc1Nc1ncc(Cl)c(N3CCc4ncccc43)n1)CN(C)CC2` .
Output: 0.5 to 1 µM
